Quantity kind: melting point

• Cn1c(=O)oc2cc(CCBr)ccc21 = 104 to 106 °C
• C=CCOCc1c(C=O)sc2c(=O)c(C(=O)NCc3ccc(Cl)cc3)cn(C)c12 = 144 to 147 °C
• O=C(O)CON=CCCl = 66 to 68 °C
• COC(=O)c1ccc(Br)cc1CBr = 78 to 79 °C
• Oc1ccc2ccc(Oc3c(Cl)cc(C(F)(F)F)cc3Cl)cc2c1 = 98 °C
• COc1ccc(S(=O)(=O)Nc2cccc(F)c2/C=C/c2ccncc2)cc1 = 177 to 178 °C
• COc1ccc(C2(CC(=O)O)CNC(=O)C2)cc1 (stereo unspecified) = 172 to 175 °C
• CC(O)(c1cccc(C(F)(F)F)c1)c1cc(Cl)ccc1O (stereo unspecified) = 115 °C
• CC(=O)n1c(=O)n(CCCN2CCN(C(c3ccccc3)c3ccccc3)CC2)c2ccccc21 = 124 °C
• CC(C)C(=O)C(=Cc1cc(O)c(O)c([N+](=O)[O-])c1)c1ccccc1 = 151 to 156 °C
• CNC(=O)C(NC(=O)c1ccc(F)cc1C(F)(F)F)C(C[N+](=O)[O-])c1ccccc1 (stereo unspecified) = 223 °C
• CC(=O)Oc1c(C(=O)N2CCc3ccccc32)c(=O)n2c3c(cc(N)cc13)OCC2 = 220 to 225 °C
• CCCCN1C(=O)CC(C2C(=O)N(CCCC)C(=O)C2c2cc(C(C)(C)C)c(O)c(C(C)(C)C)c2)C1=O (stereo unspecified) = 151 to 153 °C
• COc1cc(N)c(Cl)cc1Cn1nc(-c2ccc(Cl)c(Cl)c2)oc1=O = 196 to 198 °C
• CCCc1c2[nH]c(C(=O)OCC)cc(=O)c2cc2c(=O)cc(C(=O)OCC)oc12 = 211 to 212 °C
• Cc1c(C(=O)O)nnn1Cc1ccccc1Cl = 186 to 187 °C
• N#Cc1ccccc1Oc1ccc(-c2cn(C3CCOCC3)c3ncnc(N)c23)cc1 = 125 °C
• CCOC(=O)c1[nH]cc2c1NC1=C(C(=O)CCC1)C2c1ccc(Sc2nc3cccnc3[nH]2)o1 (stereo unspecified) = 190 to 202 °C
• Cc1ccc2scc(CCNc3ncnc4c3ncn4C3OC(CO)C(O)C3O)c2c1 (stereo unspecified) = 158 to 160 °C
• CCOc1ccc(NC(=O)c2cn(CC)c3c2C(=O)CCC3)cc1 = 209 to 210 °C
• C=C(C)C(=O)Oc1ccc2c(c1)C(=O)c1ccccc1C2=O = 184 to 186 °C
